These data points were gathered from patent US20030215462A1.

Experimental Target: UGT1A10 (Homo sapiens, UniProt Q9HAW8)
Sequence (Q9HAW8 26-530): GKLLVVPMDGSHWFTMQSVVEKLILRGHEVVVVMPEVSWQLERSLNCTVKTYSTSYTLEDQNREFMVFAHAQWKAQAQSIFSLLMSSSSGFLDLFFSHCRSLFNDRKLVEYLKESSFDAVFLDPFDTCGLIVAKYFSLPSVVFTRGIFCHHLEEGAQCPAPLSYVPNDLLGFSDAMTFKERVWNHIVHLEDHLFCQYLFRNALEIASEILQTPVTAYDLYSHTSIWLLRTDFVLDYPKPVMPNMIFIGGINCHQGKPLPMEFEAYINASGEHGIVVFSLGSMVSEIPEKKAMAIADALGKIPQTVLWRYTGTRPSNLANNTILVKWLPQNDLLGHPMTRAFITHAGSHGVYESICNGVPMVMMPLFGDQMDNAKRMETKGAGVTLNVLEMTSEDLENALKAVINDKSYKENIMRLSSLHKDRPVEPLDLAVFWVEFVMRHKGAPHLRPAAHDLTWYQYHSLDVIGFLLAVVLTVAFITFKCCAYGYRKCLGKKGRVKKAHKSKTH
Experiment Description: Inhibition of raloxifene glucuronidation by recombinant UGT1A10 Bacculosomes
Test Context: human, Bacculosomes with recombinant human UGT1A10, pH 7.5, probe raloxifene 50 μM, formation of glucuronide G2, % of control metabolism, raloxifene G2, UGT1A10; inhibitor 50 μM
Each entry below lists one item and its recorded activity at 15 min, 50 µM value.
Please give a number only; it is taken to be in %.

Compound	Unit Symbol	activity at 15 min, 50 µM
O=C(OC[C@H]1O[C@@H](OC(=O)c2cc(O)c(O)c(OC(=O)c3cc(O)c(O)c(O)c3)c2)[C@H](OC(=O)c2cc(O)c(O)c(OC(=O)c3cc(O)c(O)c(O)c3)c2)[C@@H](OC(=O)c2cc(O)c(O)c(OC(=O)c3cc(O)c(O)c(O)c3)c2)[C@@H]1OC(=O)c1cc(O)c(O)c(OC(=O)c2cc(O)c(O)c(O)c2)c1)c1cc(O)c(O)c(OC(=O)c2cc(O)c(O)c(O)c2)c1 [Tannic acid]	%	8

Qu. Item O=C(O[C@@H]1Cc2c(O)cc(O)cc2O[C@H]1c1cc(O)c(O)c(O)c1)c1cc(O)c(O)c(O)c1 [Gallocatechin gallate] has what recorded activity at 15 min, 50 µM?
Ans. 48

Qu. Item CCCCCCCCOC(=O)c1cc(O)c(O)c(O)c1 [Octyl gallate] has what recorded activity at 15 min, 50 µM?
Ans. 71

Qu. Item CC/C(=C(/CC)c1ccc(O)cc1)c1ccc(O)cc1 [Diethylstilbestrol, reference compound] has what recorded activity at 15 min, 50 µM?
Ans. 39

###

Each entry below lists one item and its recorded activity at 15 min, 50 µM value.
Experimental Target: UGT1A9 (Homo sapiens)
Sequence (O60656 26-530): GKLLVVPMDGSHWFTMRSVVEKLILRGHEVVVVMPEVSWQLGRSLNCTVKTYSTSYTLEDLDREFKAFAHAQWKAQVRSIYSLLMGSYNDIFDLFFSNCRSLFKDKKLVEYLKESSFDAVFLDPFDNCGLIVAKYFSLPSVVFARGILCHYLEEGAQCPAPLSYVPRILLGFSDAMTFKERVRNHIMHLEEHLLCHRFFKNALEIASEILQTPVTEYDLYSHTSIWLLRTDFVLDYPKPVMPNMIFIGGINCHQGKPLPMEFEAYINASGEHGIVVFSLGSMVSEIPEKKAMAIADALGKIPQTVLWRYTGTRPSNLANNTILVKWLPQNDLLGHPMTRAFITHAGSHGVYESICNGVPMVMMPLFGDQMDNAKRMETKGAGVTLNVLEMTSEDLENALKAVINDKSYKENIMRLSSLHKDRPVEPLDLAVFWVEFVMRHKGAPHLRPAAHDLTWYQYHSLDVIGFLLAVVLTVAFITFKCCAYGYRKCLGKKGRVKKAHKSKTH
Experiment Description: Inhibition of raloxifene glucuronidation by recombinant UGT1A9 Supersomes
Test Context: human, Supersomes with recombinant human UGT1A9, pH 7.5, probe raloxifene 50 μM, formation of glucuronide G1, % of control metabolism, raloxifene G1, UGT1A9; inhibitor 50 μM
The answer should read as a number with its unit following.

Use the examples below as a reference point.
Compound	Measured Property	Measurement
COc1c(C)c2c(c(O)c1C/C=C(\C)CCC(=O)O)C(=O)OC2 [Mycophenolic acid, reference compound]	activity at 15 min, 50 µM	81%
O=C(O[C@@H]1Cc2c(O)cc(O)cc2O[C@H]1c1cc(O)c(O)c(O)c1)c1cc(O)c(O)c(O)c1 [Gallocatechin gallate]	activity at 15 min, 50 µM	47%
O=C(OC[C@H]1O[C@@H](OC(=O)c2cc(O)c(O)c(OC(=O)c3cc(O)c(O)c(O)c3)c2)[C@H](OC(=O)c2cc(O)c(O)c(OC(=O)c3cc(O)c(O)c(O)c3)c2)[C@@H](OC(=O)c2cc(O)c(O)c(OC(=O)c3cc(O)c(O)c(O)c3)c2)[C@@H]1OC(=O)c1cc(O)c(O)c(OC(=O)c2cc(O)c(O)c(O)c2)c1)c1cc(O)c(O)c(OC(=O)c2cc(O)c(O)c(O)c2)c1 [Tannic acid]	activity at 15 min, 50 µM	17%
CC/C(=C(/CC)c1ccc(O)cc1)c1ccc(O)cc1 [Diethylstilbestrol, reference compound]	activity at 15 min, 50 µM	31%
CCCCCCCCOC(=O)c1cc(O)c(O)c(O)c1 [Octyl gallate]	activity at 15 min, 50 µM	84%

# evaluate next
Qu. Item O=c1c(O)c(-c2ccc(O)c(O)c2)oc2cc(O)cc(O)c12 [Quercetin] has what recorded activity at 15 min, 50 µM?
Ans. 26%

###

System: UGT enzymes of human liver microsomes
Construct: percentage of control metabolism, 7-HFC glucuronidation; percentage of control metabolism, 7-HFC glucuronidation
Experiment Description: Inhibition of 7-HFC glucuronidation in human liver microsomes
Type: biochemical
Test Context: inhibitor 200 μM; 7-HFC 50 μM, human liver microsomes 100 μg/ml, 15 min
Measured Property: % of control metabolism (SD, n = 3), 7-HFC glucuronidation

Use the examples below as a reference point.
Compound	Measurement
CC(=O)OC1CC(C)CCC1C(C)C (single isomer, unassigned; (-)) [(−)-Menthyl acetate]	72 (2) %
O=c1c(O)c(-c2ccc(O)c(O)c2)oc2cc(O)cc(O)c12 [Quercetin]	53 (1) %
O=C(O[C@@H]1Cc2c(O)cc(O)cc2O[C@@H]1c1cc(O)c(O)c(O)c1)c1cc(O)c(O)c(O)c1 [Epigallocatechin gallate]	37 (2) %

Qu. Item O=C(O[C@@H]1Cc2c(O)cc(O)cc2O[C@@H]1c1ccc(O)c(O)c1)c1cc(O)c(O)c(O)c1 [Epicatechin gallate] has what recorded % of control metabolism (SD, n = 3), 7-HFC glucuronidation?
Ans. 55 (3) %

Qu. Item O=C(OC[C@H]1O[C@@H](OC(=O)c2cc(O)c(O)c(OC(=O)c3cc(O)c(O)c(O)c3)c2)[C@H](OC(=O)c2cc(O)c(O)c(OC(=O)c3cc(O)c(O)c(O)c3)c2)[C@@H](OC(=O)c2cc(O)c(O)c(OC(=O)c3cc(O)c(O)c(O)c3)c2)[C@@H]1OC(=O)c1cc(O)c(O)c(OC(=O)c2cc(O)c(O)c(O)c2)c1)c1cc(O)c(O)c(OC(=O)c2cc(O)c(O)c(O)c2)c1 [Tannic acid] has what recorded % of control metabolism (SD, n = 3), 7-HFC glucuronidation?
Ans. 0 (0) %

Qu. Item CCCCCCCCC(=O)NCc1ccc(O)c(OC)c1 [N-Vanillylnonanamide] has what recorded % of control metabolism (SD, n = 3), 7-HFC glucuronidation?
Ans. 63 (2) %

###

Tested on: UGT enzymes of human liver microsomes
Experiment Description: Inhibition of raloxifene glucuronidation (G1, G2) in human liver microsomes
Format: biochemical
Test Context: raloxifene 50 μM; inhibitor 100 μM
Measured Property: % of control metabolism, raloxifene G1

Compound	% of control metabolism, raloxifene G1
O=C(O)Cc1ccccc1Nc1c(Cl)cccc1Cl [Diclofenac, reference compound]	50 (3) %
O=C(O)c1cc(-c2ccc(F)cc2F)ccc1O [Diflunisal, reference compound]	30 (4) %
O=c1c(O)c(-c2ccc(O)c(O)c2)oc2cc(O)cc(O)c12 [Quercetin]	6 (2) %
O=C(O[C@@H]1Cc2c(O)cc(O)cc2O[C@@H]1c1ccc(O)c(O)c1)c1cc(O)c(O)c(O)c1 [Epicatechin gallate]	20 (0) %
CCCOC(=O)c1cc(O)c(O)c(O)c1 [Propyl gallate]	48 (2) %
COc1c(C)c2c(c(O)c1C/C=C(\C)CCC(=O)O)C(=O)OC2 [Mycophenolic acid, reference compound]	89 (3) %
O=C(OC[C@H]1O[C@@H](OC(=O)c2cc(O)c(O)c(OC(=O)c3cc(O)c(O)c(O)c3)c2)[C@H](OC(=O)c2cc(O)c(O)c(OC(=O)c3cc(O)c(O)c(O)c3)c2)[C@@H](OC(=O)c2cc(O)c(O)c(OC(=O)c3cc(O)c(O)c(O)c3)c2)[C@@H]1OC(=O)c1cc(O)c(O)c(OC(=O)c2cc(O)c(O)c(O)c2)c1)c1cc(O)c(O)c(OC(=O)c2cc(O)c(O)c(O)c2)c1 [Tannic acid]	0 (0), 0 (0) %

# evaluate next
Qu. Item C#C[C@]1(O)CC[C@H]2[C@@H]3CCc4cc(O)ccc4[C@H]3CC[C@@]21C [17-α-Ethinylestradiol, 17-α-ethinylestradiol, reference compound] has what recorded % of control metabolism, raloxifene G1?
Ans. 31 (2) %

###

Experimental Target: UGT1A3 (Homo sapiens, UniProt P35503)
Sequence (P35503 29-534): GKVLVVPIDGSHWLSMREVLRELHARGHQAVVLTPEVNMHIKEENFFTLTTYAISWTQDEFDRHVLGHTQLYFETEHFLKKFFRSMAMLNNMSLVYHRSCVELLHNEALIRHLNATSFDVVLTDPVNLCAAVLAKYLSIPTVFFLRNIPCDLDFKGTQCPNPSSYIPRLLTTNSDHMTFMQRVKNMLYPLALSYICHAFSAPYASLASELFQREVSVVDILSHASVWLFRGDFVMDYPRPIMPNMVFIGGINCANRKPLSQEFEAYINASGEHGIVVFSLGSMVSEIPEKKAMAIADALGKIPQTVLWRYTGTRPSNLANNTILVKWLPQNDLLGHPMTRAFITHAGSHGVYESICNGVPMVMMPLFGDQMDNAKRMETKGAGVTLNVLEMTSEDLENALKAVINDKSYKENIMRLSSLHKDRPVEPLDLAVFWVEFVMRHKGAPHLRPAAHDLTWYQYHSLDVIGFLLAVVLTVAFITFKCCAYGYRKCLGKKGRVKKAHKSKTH
Experiment Description: in vitro
Test Context: pH 7.5, % of control metabolism, raloxifene G1
Measured Property: activity at 15 min, 10 µM (%)
Please give a number only; it is taken to be in %.

Qu. What is its activity at 15 min, 10 µM for UGT1A3 (Homo sapiens, UniProt P35503)? Entry: COc1cc(C2Oc3cc([C@H]4Oc5cc(O)cc(O)c5C(=O)[C@@H]4O)ccc3OC2CO)ccc1O (stereo partly shown)
Ans. 81
